As shown below, each of these molecules has a reported melting point value.

Solved entries:
| molecule | melting point |
| --- | --- |
| Cc1nc2c3c(ccn2c1C)[C@H](OC(C)C)[C@H](O)[C@@H](c1ccccc1)N3 [Example 7] | 168 to 169 °C |
| CO[C@@H]1c2ccn3c(C)c(C)nc3c2N[C@@H](c2ccccc2)[C@@H]1O [Example 2B] | 171 to 172 °C |
| CO[C@H]1c2ccn3c(C)c(C)nc3c2N[C@@H](c2ccccc2)[C@@H]1O [Example 1B] | 161 to 162 °C |
| CO[C@@H]1[C@@H](c2ccccc2)Nc2c(ccn3c(C)c(C)nc23)[C@H]1OC [Example 8] | 155 to 156 °C |

Data request: I am curious: what melting point value has been reported for CCO[C@@H]1c2ccn3c(C)c(C)nc3c2N[C@H](c2ccccc2)[C@H]1O [Example 3] ?
Data returned: 188 to 190 °C

Data request: I am curious: what melting point value has been reported for CO[C@H]1c2ccn3c(C)c(C)nc3c2N[C@H](c2ccccc2)[C@H]1O [Example 2A] ?
Data returned: 108 to 110 °C

Data request: I am curious: what melting point value has been reported for CCO[C@H]1c2ccn3c(C)c(C)nc3c2N[C@H](c2ccccc2)[C@H]1O [Example 4] ?
Data returned: 135 to 137 °C
